- experiment-description: Cynomolgus monkey tolerability, hematology (Example 34)
- Type: in vivo, cynomolgus monkeys
- condition-label: cynomolgus monkey, in vivo, sc, 35 mg/kg

[
  {
    "substance": "1198439 (AGTGTATGTCAGAAGA; sugar, 5-methylcytosine, phosphorothioate modifications, further chemistry not given here) [compound 1198439]",
    "scale-unit": "%",
    "MON": 2.9
  },
  {
    "substance": "1198605 (GTAATATTGCAATCTG; modified gapmer, further chemistry not given here) [compound 1198605]",
    "scale-unit": "%",
    "MON": 2.8
  },
  {
    "substance": "1076453 (GTAATATTGCAATCTG; 3-10-3 cEt gapmer, further chemistry not given here) [compound 1076453]",
    "scale-unit": "%",
    "MON": 3.9
  },
  {
    "substance": "958499 (ATTAGAGTATGTGGCA; 3-10-3 cEt gapmer, further chemistry not given here) [compound 958499]",
    "scale-unit": "%",
    "MON": 3.5
  },
  {
    "substance": "1198728 (TATTAGAGTATGTGGC; modified gapmer, further chemistry not given here) [compound 1198728]",
    "scale-unit": "%",
    "MON": 2.9
  }
]
